Source listed as patent US20220002427A1.

What koff was measured for each of the following?
# STUDY SYSTEM: recombinant cynomolgus BCMA Fc(kih) (cynomolgus, UniProt A0A2K5UD97 4-51)
# Sequence (A0A2K5UD97 entry or part of it): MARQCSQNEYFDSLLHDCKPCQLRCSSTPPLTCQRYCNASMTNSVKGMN
# EXPERIMENT DESCRIPTION: SPR (Biacore T200), IgG captured via anti-human Fab, BCMA Fc(kih) as analyte, 1:1 Langmuir fit
# Protocol: Assessment of binding of anti-BCMA antibodies to recombinant BCMA by surface plasmon resonance (SPR) as follow. […] The avidity of the interaction between anti-BCMA antibodies and recombinant BCMA Fc(kih) (human and cynomolgus) was determined. […] The dissociation was monitored for 180 seconds. […] The affinity of the interaction between anti-BCMA antibodies and recombinant human BCMA Fc(kih) was also determined. […] The dissociation was monitored for 120 seconds. […]
The reply should be a number in s⁻¹, with the unit left off.

Problem: Requested field: koff. Item: Mab 42 IgG (antibody, V domains shown, also called antibody 42; clone 42) VH: EVQLLESGGGLVQPGGSLRLSCAASGFTFSDNAMGWVRQAPGKGLEWVSAISGPGSSTYYADSVKGRFTISRDNSKNTLYLQMNSLRAEDTAVYYCAKVLGWFDYWGQGTLVTVSS VL: EIVLTQSPGTLSLSPGERATLSCRASQSVSDEYLSWYQQKPGQAPRLLIHSASTRATGIPDRFSGSGSGTDFTLAISRLEPEDFAVYYCQQYGYPPDFTFGQGTKVEIK
Solution: 0.000453

Problem: Requested field: koff. Item: Mab 39 IgG (antibody, V domains shown) VH: EVQLLESGGGLVQPGGSLRLSCAASGFTFTQNAMGWVRQAPGKGLEWVSAISPTGFSTYYADSVKGRFTISRDNSKNTLYLQMNSLRAEDTAVYYCAKVLGWFDYWGQGTLVTVSS VL: EIVLTQSPGTLSLSPGERATLSCRASQSVSEYYLAWYQQKPGQAPRLLIEHASTRATGIPDRFSGSGSGTDFTLTISRLEPEDFAVYYCQQYGYPPDFTFGQGTKVEIK
Solution: 0.000467

Problem: Requested field: koff. Item: Mab 33 IgG (antibody, V domains shown) VH: EVQLLESGGGLVQPGGSLRLSCAASGFTFYTNAMGWVRQAPGKGLEWVSAINRFGGSTYYADSVKGRFTISRDNSKNTLYLQMNSLRAEDTAVYYCAKVLGWFDYWGQGTLVTVSS VL: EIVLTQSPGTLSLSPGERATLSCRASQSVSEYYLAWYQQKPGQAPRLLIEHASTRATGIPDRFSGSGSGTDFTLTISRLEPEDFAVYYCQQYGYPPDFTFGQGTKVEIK
Solution: 9.76e-05
